The measurements presented in this section are drawn from patent US6893830B1.

Biological target: LXRα (Homo sapiens, UniProt Q13133)
Sequence (Q13133 1-447): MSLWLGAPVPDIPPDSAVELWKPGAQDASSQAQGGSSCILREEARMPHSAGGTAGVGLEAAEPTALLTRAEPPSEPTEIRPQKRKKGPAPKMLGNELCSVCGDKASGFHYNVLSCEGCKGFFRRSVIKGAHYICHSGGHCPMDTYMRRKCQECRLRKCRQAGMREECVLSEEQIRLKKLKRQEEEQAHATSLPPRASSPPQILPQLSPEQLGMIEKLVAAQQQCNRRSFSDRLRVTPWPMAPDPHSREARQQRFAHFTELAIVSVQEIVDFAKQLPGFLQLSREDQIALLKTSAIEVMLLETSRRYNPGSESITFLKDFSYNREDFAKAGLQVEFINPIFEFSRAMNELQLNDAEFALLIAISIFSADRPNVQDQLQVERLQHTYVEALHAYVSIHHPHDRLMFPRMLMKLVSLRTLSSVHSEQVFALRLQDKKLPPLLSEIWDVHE
Sequence (P19793 1-462 partner): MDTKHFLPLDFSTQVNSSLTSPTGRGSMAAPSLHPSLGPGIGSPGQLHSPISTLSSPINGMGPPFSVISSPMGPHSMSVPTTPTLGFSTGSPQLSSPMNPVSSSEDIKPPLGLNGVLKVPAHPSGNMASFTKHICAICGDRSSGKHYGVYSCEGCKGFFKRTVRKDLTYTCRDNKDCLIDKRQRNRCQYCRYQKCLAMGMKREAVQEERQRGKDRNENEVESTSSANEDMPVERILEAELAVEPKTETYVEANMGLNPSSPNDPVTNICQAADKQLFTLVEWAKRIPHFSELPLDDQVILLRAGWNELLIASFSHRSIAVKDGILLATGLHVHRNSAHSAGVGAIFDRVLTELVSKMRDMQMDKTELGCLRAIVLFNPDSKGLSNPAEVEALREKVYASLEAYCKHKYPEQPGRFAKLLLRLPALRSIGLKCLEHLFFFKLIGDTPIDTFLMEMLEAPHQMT
Test: LXRα cotransfection assay with TK-LXREx3-LUC reporter in CV-1 cells
Format: cell-based
Design: expressed in transfected cells; host or cells: CV-1 monkey kidney cells
EC50 for assorted compounds
// return numeric value only (unit: nM, not printed)

CC(C)CC[C@@H](O)[C@@H](C)[C@H]1CC[C@H]2[C@@H]3CC=C4C[C@@H](O)CC[C@]4(C)[C@H]3CC[C@]12C [22(R)-hydroxycholesterol] ... 1500

Shifting focus to the compound that follows.
q: LXRα (Homo sapiens, UniProt Q13133) / EC50 / CC(C)C(O)CC[C@@H](C)[C@H]1CC[C@H]2[C@@H]3CC=C4C[C@@H](O)CC[C@]4(C)[C@H]3CC[C@]12C (some centres unmarked) [24-hydroxycholesterol] : value?
a: 1600

====

Biological target: LXRα (Homo sapiens, UniProt Q13133)
Experiment: LXRα cotransfection assay with TK-LXREx3-LUC reporter in CV-1 cells
Format: cell-based
Set-up: expressed in transfected cells; host or cells: CV-1 monkey kidney cells
Details: CV-1 cell cotransfection, dose response curves; read-out: EC50 for LXRα activators
assay.endpoint: pEC50
Scale note: pEC50 = -log10(concentration in M).

Consider the following illustrative entries.
CC(C)CCC[C@@H](C)[C@H]1CC[C@H]2[C@@H]3[C@@H](O)C=C4C[C@@H](O)CC[C@]4(C)[C@H]3CC[C@]12C [7β-hydroxycholesterol] ... 5.46
CC(C)=CCC[C@@H](C)[C@H]1CC=C2C3=C(CC[C@@]21C)[C@@]1(C)CC[C@H](O)C(C)(C)[C@@H]1CC3 ... 5.46
C[C@H](CCCC(C)(C)O)[C@H]1CC[C@H]2[C@@H]3CC=C4C[C@@H](O)CC[C@]4(C)[C@H]3CC[C@]12C [25-hydroxycholesterol] ... 5.46

Pending molecule:
q: Which pEC50 value belongs to CC(C)CCC[C@](C)(O)[C@H]1CC[C@H]2[C@@H]3CC=C4C[C@@H](O)CC[C@]4(C)[C@H]3CC[C@@]21C [20(S)-hydroxycholesterol] ?
a: 5.80
